Experimental System: UniProt P29274
Procedure Details: Competition binding with tritiated compound 1
Cond: Sf9 membranes

[
  {
    "Molecule": "Nc1ccc(N)c2c1C(=O)c1ccccc1C2=O",
    "A2AAR affinity (in words)": "sub-µM affinity"
  },
  {
    "Molecule": "COc1ccc(N)c2c1C(=O)c1ccccc1C2=O",
    "A2AAR affinity (in words)": "sub-µM affinity"
  },
  {
    "Molecule": "Nc1ccc(Cl)c2c1C(=O)c1ccccc1C2=O",
    "A2AAR affinity (in words)": "sub-µM affinity"
  }
]

###

Experimental System: human adenosine A2A receptor (Homo sapiens, UniProt P29274)
Sequence (P29274 whole entry): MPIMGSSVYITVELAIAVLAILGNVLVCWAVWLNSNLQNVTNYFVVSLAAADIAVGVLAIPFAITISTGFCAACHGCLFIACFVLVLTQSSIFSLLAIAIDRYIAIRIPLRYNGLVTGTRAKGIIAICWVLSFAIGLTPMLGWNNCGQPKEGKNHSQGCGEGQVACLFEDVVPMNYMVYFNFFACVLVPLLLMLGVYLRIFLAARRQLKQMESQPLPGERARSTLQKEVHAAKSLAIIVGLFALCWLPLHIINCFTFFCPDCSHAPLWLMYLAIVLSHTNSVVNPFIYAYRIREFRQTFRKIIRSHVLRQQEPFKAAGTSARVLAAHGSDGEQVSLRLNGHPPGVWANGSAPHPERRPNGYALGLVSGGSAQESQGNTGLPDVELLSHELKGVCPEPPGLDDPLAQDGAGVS
Procedure Details: Radioligand displacement at A2AAR-HEK membranes
Assay type: binding
Cond: 10 µM of test compound
Lab note: anything with Max Displacement at A2AAR-HEK membranes at or over 50% counts as met; the rest go in not met.

Lookup: Decide: Max Displacement at A2AAR-HEK membranes of `N#Cc1c(N)nc2c(C(N)=O)c(Nc3ccccc3)sc2c1-c1ccccc1` >= 50%?
Found: met

Lookup: Decide: Max Displacement at A2AAR-HEK membranes of `Cn1c(=O)cc2c3c(c(N)ccc31)C(=O)c1ccccc1-2` >= 50%?
Found: met

Lookup: Decide: Max Displacement at A2AAR-HEK membranes of `COc1ccc(N)c2c1C(=O)c1ccccc1C2=O` >= 50%?
Found: met

Lookup: Decide: Max Displacement at A2AAR-HEK membranes of `NC1=C(Nc2cccc(C(F)(F)F)c2)C(=O)c2ccccc2C1=O` >= 50%?
Found: met

Lookup: Decide: Max Displacement at A2AAR-HEK membranes of `N#Cc1c(N)nc2c(oc3ccccc32)c1-c1ccccc1` >= 50%?
Found: met

Lookup: Decide: Max Displacement at A2AAR-HEK membranes of `Cc1ccc(N2C(=O)c3cccc(N)c3C2=O)cc1` >= 50%?
Found: met

Lookup: Decide: Max Displacement at A2AAR-HEK membranes of `Nc1ccc(N)c2c1C(=O)c1ccccc1C2=O` >= 50%?
Found: met

Lookup: Decide: Max Displacement at A2AAR-HEK membranes of `COc1ccc(Cl)cc1Nc1nc(N)nc(-c2oc3ccccc3c2C)n1` >= 50%?
Found: not met

Lookup: Decide: Max Displacement at A2AAR-HEK membranes of `Nc1c(C(=O)Nc2nccs2)sc2nc3c(cc12)C(=O)CCC3` >= 50%?
Found: met

Lookup: Decide: Max Displacement at A2AAR-HEK membranes of `Nc1c(C(=O)Nc2ccccc2F)sc2nc3c(cc12)C(=O)CCC3` >= 50%?
Found: not met

###

Experimental System: human adenosine A2A receptor (Homo sapiens)
Procedure Details: Radioligand displacement at A2AAR-HEK membranes
Format: binding
Cond: mammalian membranes, A2AAR over A1AR
Note to self: A2A / A1 selectivity under 0.9 fold means t, ties and anything higher get f.

Lookup: Would you kindly verify if A2A / A1 selectivity of N#Cc1c(N)nc2c(C(N)=O)c(Nc3ccccc3)sc2c1-c1ccccc1 [compound 8] is strictly less than 0.9 fold?
Found: t

Lookup: Would you kindly verify if A2A / A1 selectivity of Nc1c(C(=O)Nc2ccccc2F)sc2nc3c(cc12)C(=O)CCC3 [compound 6] is strictly less than 0.9 fold?
Found: f

Lookup: Would you kindly verify if A2A / A1 selectivity of Cn1c(=O)cc2c3c(c(N)ccc31)C(=O)c1ccccc1-2 [compound 35] is strictly less than 0.9 fold?
Found: t

Lookup: Would you kindly verify if A2A / A1 selectivity of N#Cc1c(N)nc2c(oc3ccccc32)c1-c1ccccc1 [compound 15] is strictly less than 0.9 fold?
Found: t

Lookup: Would you kindly verify if A2A / A1 selectivity of COc1ccc(Cl)cc1Nc1nc(N)nc(-c2oc3ccccc3c2C)n1 [compound 9] is strictly less than 0.9 fold?
Found: f
